# Tested on: Respiratory Syncytial Virus (RSV) long strain
# test: microbe, parasite or virus in culture
# Assay type: cell-based
# assayConditions: human respiratory syncytial virus, HEp-2, 120 h, read-out: 50% effective concentration (EC50), HEp-2 cells infected with RSV long strain, 5 days, CCK-8 readout; Tables A and B list compounds by EC50 band
pEC50: −log10 of the molar value.
measuredAttribute: pEC50

These recorded examples may help you get a feel for the data.
// query // returns reported pEC50 for input COc1cc(C(=O)NCC(O)(c2cc(C(C)(C)N)cc(-c3ccc(F)c(Cl)c3)n2)C(F)(F)F)ccc1OC[C@@H](C)O (stereo partly shown)
// result > 6.00

// query // returns reported pEC50 for input COc1cc(C(=O)NCC(O)(c2ccc(OC)c(-c3ccc(F)c(Cl)c3)n2)C2CC2)ccc1OC(F)F (stereo not shown)
// result 4.30 to 6.00

// query // returns reported pEC50 for input COc1ccc(C(O)(CNC(=O)c2ccc3ncsc3c2)C(F)(F)F)nc1-c1ccc(F)c(Cl)c1 (stereo not shown)
// result 4.30 to 6.00

---
// query // returns reported pEC50 for input CC(C)(N)c1cc(-c2ccc(F)c(Cl)c2)nc(C(O)(CNC(=O)c2ccc3c(c2)OCO3)C(F)(F)F)c1 (stereo not shown)
// result > 6.00

* * *

# system: recombinant RSV complex (Human respiratory syncytial virus A, UniProt P28887)
# Sequence (P28887 whole entry): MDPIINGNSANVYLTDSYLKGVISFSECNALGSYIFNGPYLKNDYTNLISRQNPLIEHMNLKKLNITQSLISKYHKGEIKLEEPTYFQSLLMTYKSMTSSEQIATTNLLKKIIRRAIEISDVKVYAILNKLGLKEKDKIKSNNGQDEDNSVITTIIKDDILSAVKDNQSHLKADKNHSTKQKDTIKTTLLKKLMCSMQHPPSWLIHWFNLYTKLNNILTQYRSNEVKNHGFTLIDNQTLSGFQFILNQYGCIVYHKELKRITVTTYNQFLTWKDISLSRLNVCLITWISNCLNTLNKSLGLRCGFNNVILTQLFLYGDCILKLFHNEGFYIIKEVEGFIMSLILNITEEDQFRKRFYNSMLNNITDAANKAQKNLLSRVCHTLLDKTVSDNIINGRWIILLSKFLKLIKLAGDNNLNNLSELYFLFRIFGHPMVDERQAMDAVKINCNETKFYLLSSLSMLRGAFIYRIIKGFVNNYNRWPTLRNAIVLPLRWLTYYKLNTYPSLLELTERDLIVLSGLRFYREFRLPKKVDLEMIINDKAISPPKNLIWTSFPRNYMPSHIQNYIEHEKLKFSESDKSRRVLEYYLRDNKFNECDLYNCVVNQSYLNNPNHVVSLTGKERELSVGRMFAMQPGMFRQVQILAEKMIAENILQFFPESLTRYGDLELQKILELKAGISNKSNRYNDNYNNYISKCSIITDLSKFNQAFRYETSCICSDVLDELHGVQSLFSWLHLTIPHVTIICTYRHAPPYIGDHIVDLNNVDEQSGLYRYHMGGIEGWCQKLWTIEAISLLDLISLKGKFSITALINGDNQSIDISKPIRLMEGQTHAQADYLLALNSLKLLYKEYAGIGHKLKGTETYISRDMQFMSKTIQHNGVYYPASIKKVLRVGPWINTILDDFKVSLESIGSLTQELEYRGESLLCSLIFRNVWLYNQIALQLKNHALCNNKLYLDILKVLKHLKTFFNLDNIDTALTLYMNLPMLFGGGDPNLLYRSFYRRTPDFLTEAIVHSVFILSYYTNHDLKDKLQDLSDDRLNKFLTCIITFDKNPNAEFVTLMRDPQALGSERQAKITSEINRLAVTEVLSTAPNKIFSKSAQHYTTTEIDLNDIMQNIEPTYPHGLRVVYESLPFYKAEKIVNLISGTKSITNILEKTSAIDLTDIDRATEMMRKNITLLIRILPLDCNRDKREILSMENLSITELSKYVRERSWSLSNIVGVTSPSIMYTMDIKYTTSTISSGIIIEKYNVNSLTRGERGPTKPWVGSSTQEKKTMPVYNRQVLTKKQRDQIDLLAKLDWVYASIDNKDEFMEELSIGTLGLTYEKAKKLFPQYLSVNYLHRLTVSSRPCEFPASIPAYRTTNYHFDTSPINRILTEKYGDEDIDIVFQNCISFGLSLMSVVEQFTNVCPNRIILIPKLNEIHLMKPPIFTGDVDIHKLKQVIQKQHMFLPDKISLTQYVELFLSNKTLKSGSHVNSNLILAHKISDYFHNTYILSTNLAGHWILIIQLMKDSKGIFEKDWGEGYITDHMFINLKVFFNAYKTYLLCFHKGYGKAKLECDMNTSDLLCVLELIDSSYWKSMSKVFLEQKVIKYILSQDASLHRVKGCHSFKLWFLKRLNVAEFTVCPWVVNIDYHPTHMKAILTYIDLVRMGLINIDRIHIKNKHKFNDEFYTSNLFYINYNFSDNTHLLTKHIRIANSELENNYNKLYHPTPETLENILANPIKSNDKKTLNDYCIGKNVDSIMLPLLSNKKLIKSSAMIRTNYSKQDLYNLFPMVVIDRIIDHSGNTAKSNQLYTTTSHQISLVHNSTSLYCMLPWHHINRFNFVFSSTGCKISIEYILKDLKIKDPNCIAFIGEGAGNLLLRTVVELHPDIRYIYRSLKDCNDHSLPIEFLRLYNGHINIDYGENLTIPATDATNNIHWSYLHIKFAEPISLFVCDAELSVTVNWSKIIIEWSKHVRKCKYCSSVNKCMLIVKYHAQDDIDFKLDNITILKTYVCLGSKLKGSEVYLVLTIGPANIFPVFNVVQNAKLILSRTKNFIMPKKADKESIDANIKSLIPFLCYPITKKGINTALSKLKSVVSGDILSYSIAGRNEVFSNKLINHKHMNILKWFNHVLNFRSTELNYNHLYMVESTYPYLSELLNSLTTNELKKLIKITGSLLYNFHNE
# Sequence (P03421 whole entry, further chain): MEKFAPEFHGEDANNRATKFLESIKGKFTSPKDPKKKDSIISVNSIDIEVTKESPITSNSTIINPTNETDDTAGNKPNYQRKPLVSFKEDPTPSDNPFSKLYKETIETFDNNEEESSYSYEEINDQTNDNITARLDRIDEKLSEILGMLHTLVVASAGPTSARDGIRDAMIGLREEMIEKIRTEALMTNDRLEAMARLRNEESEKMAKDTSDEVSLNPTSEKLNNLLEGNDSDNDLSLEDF
# test: RSV Polymerase Inhibition Assay
# Assay type: biochemical
pIC50: −log10 of the molar value.
measuredAttribute: pIC50

These recorded examples may help you get a feel for the data.
// query // returns reported pIC50 for input COc1cc(C(=O)NC[C@](O)(c2cc3c(c(-c4ccc(F)cc4)n2)OCC3(N)CO)C(F)(F)F)ccc1OC1CC1 (some centres unmarked)
// result > 6.00

// query // returns reported pIC50 for input COc1cc(C(=O)NCC(O)(c2cc(C(C)(C)NC(=O)OCc3ccccc3)cc(-c3ccc(F)c(Cl)c3)n2)C(F)(F)F)ccc1OC1CC1 (centres unmarked)
// result > 6.00

// query // returns reported pIC50 for input COc1cc(C(=O)NCC(C)(O)c2ccc(OC)c(-c3ccc(F)c(Br)c3)n2)ccc1OCCO (centres unmarked)
// result > 6.00

// query // returns reported pIC50 for input COc1cc(C(=O)NCC(O)(c2cc(C(C)(C)N)cc(-c3ccc(F)c(Cl)c3)n2)C(F)(F)F)ccc1OCCOC(=O)C(C)C (centres unmarked)
// result > 5.00

// query // returns reported pIC50 for input COc1cc(C(=O)NCC(O)(c2cc3c(c(-c4ccc(F)c(C(C)F)c4)n2)OCCC3(C)C)C2CC2)ccc1OCCO (centres unmarked)
// result > 6.00

// query // returns reported pIC50 for input COc1cc(C(=O)NCC(F)(CO)c2ccc(OC)c(-c3ccc(F)c(Cl)c3)n2)ccc1OC1CC1 (centres unmarked)
// result > 6.00

// query // returns reported pIC50 for input `COc1cc(C(=O)NCC(=O)c2cc3c(c(-c4c[nH]c5c(F)cccc45)n2)OCC3)ccc1OCCF`
// result > 6.00

// query // returns reported pIC50 for input COc1ccc(C(O)(CNC(=O)c2ccc3c(c2)ncn3C)C(F)(F)F)nc1-c1ccc(F)c(Cl)c1 (centres unmarked)
// result > 5.00

---
// query // returns reported pIC50 for input COc1cc(C(=O)NCC(O)(c2ccc(OC)c(-c3ccc(F)c(Cl)c3)n2)C(F)(F)F)ccc1OC(C)C (centres unmarked)
// result > 6.00
